Data origin, for the record: patent US20240252488A1

Readings of Necroptosis inhibition assay (Rescue %) 1 μM for the listed compounds
Tested on: FADD−/− Jurkat cells
Experiment: Necroptosis inhibition assay, TNF-α-induced necroptosis (CellTiter-Glo 2.0)
Type: cell-based, human
Conditions: compound 1 μM; TNF-α 15 ng/mL
RESULT TYPE: Necroptosis inhibition assay (Rescue %) 1 μM

[
  {
    "COMPOUND": "Nc1ncc(-c2cnn(C3CCN(CCC4CCN(C(=O)CC5CCN(c6ccc7c(c6)C(=O)N(C6CCC(=O)NC6=O)C7=O)CC5)CC4)CC3)c2)nc1C(=O)O[C@@H](C(=O)Nc1ccc(F)cc1)c1ccccc1 (stereo partly shown)",
    "VALUE UNIT": "%",
    "TEST RESULT": 36.86
  },
  {
    "COMPOUND": "Nc1ncc(-c2cnn([C@H]3CCN(CCOCCOCCNC(=O)COc4ccc5c(c4)C(=O)N(C4CCC(=O)NC4=O)C5=O)C3)c2)nc1C(=O)OC(C(=O)Nc1ccc(F)cc1)c1ccccc1 (stereo partly shown)",
    "VALUE UNIT": "%",
    "TEST RESULT": 35.24
  },
  {
    "COMPOUND": "Nc1ncc(-c2cnn(C3CCN(C(=O)C4CCN(C(=O)COc5cccc6c5C(=O)N(C5CCC(=O)NC5=O)C6=O)CC4)CC3)c2)nc1C(=O)OC(C(=O)Nc1ccc(F)cc1)c1ccccc1 (stereo not shown)",
    "VALUE UNIT": "%",
    "TEST RESULT": 43.59
  },
  {
    "COMPOUND": "Nc1ncc(-c2cnn(C3CCN(C(=O)CCCCCNC(=O)CNc4ccc5c(c4)C(=O)N(C4CCC(=O)NC4=O)C5=O)CC3)c2)nc1C(=O)O[C@@H](C(=O)Nc1ccc(F)cc1)c1ccccc1 (stereo partly shown)",
    "VALUE UNIT": "%",
    "TEST RESULT": 8.69
  },
  {
    "COMPOUND": "Nc1ncc(-c2cnn(C3CCN(CCCN4CCN(C(=O)COc5ccc6nnn(C7CCC(=O)NC7=O)c(=O)c6c5)CC4)CC3)c2)nc1C(=O)O[C@@H](C(=O)Nc1ccc(F)cc1)c1ccccc1 (stereo partly shown)",
    "VALUE UNIT": "%",
    "TEST RESULT": 52.00
  },
  {
    "COMPOUND": "Nc1ncc(-c2cnn(C3CCN(CCOCCOCCNC(=O)CNc4ccc5nnn(C6CCC(=O)NC6=O)c(=O)c5c4)CC3)c2)nc1C(=O)O[C@@H](C(=O)Nc1ccc(F)cc1)c1ccccc1 (stereo partly shown)",
    "VALUE UNIT": "%",
    "TEST RESULT": 16.47
  },
  {
    "COMPOUND": "Nc1ncc(-c2cnn(C3CCN(CCOCCOCCNC(=O)CNc4ccc5c(c4)C(=O)N(C4CCC(=O)NC4=O)C5=O)CC3)c2)nc1C(=O)O[C@@H](C(=O)Nc1ccc(F)cc1)c1ccccc1 (stereo partly shown)",
    "VALUE UNIT": "%",
    "TEST RESULT": 34.93
  },
  {
    "COMPOUND": "Nc1ncc(C2=CCN(C(=O)CCCCCNC(=O)C3CCN(c4ccc5c(c4)C(=O)N(C4CCC(=O)NC4=O)C5=O)CC3)CC2)cc1C(=O)O[C@@H](C(=O)Nc1ccc(F)cc1)c1ccccc1 (stereo partly shown)",
    "VALUE UNIT": "%",
    "TEST RESULT": 14.54
  },
  {
    "COMPOUND": "Nc1ncc(-c2cnn(C3CCN(CCOCCOCCOCCNc4cccc5c4C(=O)N(C4CCC(=O)NC4=O)C5=O)CC3)c2)nc1C(=O)O[C@@H](C(=O)Nc1ccc(F)cc1)c1ccccc1 (stereo partly shown)",
    "VALUE UNIT": "%",
    "TEST RESULT": 37.21
  },
  {
    "COMPOUND": "Nc1ncc(-c2cnn(C3CCN(C(=O)C4CCN(C(=O)C5CCN(c6ccc7c(c6)C(=O)N(C6CCC(=O)NC6=O)C7=O)CC5)CC4)CC3)c2)nc1C(=O)OC(C(=O)Nc1ccc(F)cc1)c1ccccc1 (stereo not shown)",
    "VALUE UNIT": "%",
    "TEST RESULT": 77.01
  }
]
